- Test system: Zika virus NS2B-NS3 protease (linked construct)
- assay_procedure: Primary screen NINDS Rhodamine qHTS for Zika virus inhibitors (AID 1347160); further: nearly all actives have a fitted effect of over 55% in size
- conditions: purified NS2B-NS3 protease, Rhodamine110 substrate fluorescence; series mostly up to 33.1 µM
Results filed as inconclusive are left out. Calls of active or inactive are those of the source. The call rests on the fitted dose curve; in most records, active means well fitted inhibition curve with a large enough effect; inconclusive means small, poorly fitted or top-dose-only effect; inactive means no such curve, though single readings can be large or run the other way.
Can you answer with just one of these options? YES = active, NO = inactive

stdin: Test call for this compound, please: C=C1C2(C)CC3C4(C)C=CC(=O)OC(C)(C)C4CCC3(C)C1(C(=O)OC)C(=O)C(C)(O)C2=O (stereo not drawn)
stdout: NO

stdin: Test call for this compound, please: O=C(O)CC1CCC(c2ccc(NC(=O)c3nnc(Nc4ccc(F)c(F)c4)o3)cc2)CC1 (stereo not drawn)
stdout: YES

stdin: Test call for this compound, please: CC1(C)C2CC[C@]3(C)C(C(=O)C=C4[C@H]5C[C@@](C)(C(=O)O)CC[C@]5(C)CC[C@]43C)[C@@]2(C)CC[C@@H]1O (stereo partly drawn)
stdout: NO

stdin: Test call for this compound, please: CC1=CC23[C@H](C=C(C(=O)O)[C@@H]2COC(=O)[C@]3(O)CO)[C@@H]1C (stereo partly drawn)
stdout: NO

stdin: Test call for this compound, please: COC(=O)[C@H](O)[C@H]1C(C)(C)[C@H](OC(C)=O)[C@@]2(O)C(=O)[C@]1(C)C1CC[C@]3(C)C(CC(=O)O[C@H]3c3ccoc3)[C@]13O[C@@H]32 (stereo partly drawn)
stdout: NO

stdin: Test call for this compound, please: O=C(NC/C=C/CN1CCN(c2cccc(Cl)c2Cl)CC1)c1ccc(-c2ccccn2)cc1
stdout: NO

stdin: Test call for this compound, please: CC(C)C1(O)C=C2C(=O)CC3C(C)(C(=O)O)CCCC3(C)C2CC1 (stereo not drawn)
stdout: NO

stdin: Test call for this compound, please: O=C(NCC(=O)N1CCCC1)Nc1ccc2ccccc2c1
stdout: NO

* * *

- Tested on: Tov-21-G
- assay_procedure: Primary qHTS to identify gynecologic anti-cancer compounds using libraries of approved drugs and bioactive compounds (AID 1345084); further: on the % scale 0 is the no-effect control and ±100 the full control effect; nearly all actives have a fitted effect of over 55% in size
- conditions: Gynecologic cancer cell panel viability, ATPlite luminescence, 48 h; series mostly up to 57.5 µM
Inconclusive results are not listed. Active and inactive are the calls of the source. Calls come from the whole dose curve; as a rule, active = well fitted cell-killing curve with a large enough effect; inconclusive = small, poorly fitted or top-dose-only effect, or effect the other way; inactive = flat fitted curve, though single readings scatter.
measurement_label: activity change, negative = cytotoxicity

Example compounds with recorded activity change, negative = cytotoxicity:
COC(=O)C1=CO[C@@H](O[C@@H]2O[C@H](CO)[C@@H](O)[C@H](O)[C@H]2O)[C@@H]2C(C)CC(=O)[C@]12O (stereo partly drawn) : inactive
O=C(O)C[C@H]1CCC(=O)[C@@H]1C/C=C\CCO : inactive
CC1(C)CCC2(C(=O)O)C(O)CC3(C)C(=CCC4C5(C)CCC(OC6OC(CO)C(O)C(O)C6OC6OC(CO)C(O)C(O)C6OC6OCC(O)(CO)C6O)C(C)(C)C5CCC43C)C2C1 (stereo not drawn) : -4.95% [at 11.6 µM] (inactive)
CN1C(=O)N(c2cc(Cl)cc(Cl)c2)C(=O)[C@@]1(C)Cc1ccc(Br)cc1 : inactive
Nc1ccc(-n2nc(C(F)(F)F)cc2C(F)(F)F)cc1 : inactive
NC(=O)[C@H](Cc1ccccc1)NC(=O)[C@H](CCCN=C(N)N)NC(=O)C12CC3CC(CC(C3)C1)C2 : 4.32% [at 11.6 µM] (inactive)
CC1(C)C=Cc2c(ccc3c2N=C2C(C)(C)[C@@H]4C[C@]56CCCN5C(=O)[C@@]4(C[C@]23O)NC6=O)O1 : inactive

stdin: What activity change, negative = cytotoxicity value was documented for this compound, CC1=C2C(=O)C=C(CO)C2[C@H]2OC(=O)[C@H](C)[C@@H]2[C@@H](OC(=O)Cc2ccc(O)cc2)C1 (stereo partly drawn) ?
stdout: inactive
